Test: Changes in MIC under different conditions: broth MIC
Format: cell-based
Details: normal MH broth; strain not given
Below: a set of entries, each annotated with reported Broth MIC Normal MH broth.
Reply with just the number (in mg/L).

COMPOUND SMILES	Broth MIC Normal MH broth / mg/L
CC(=O)NC[C@H]1CN(c2ccc(N3CCN(C(=O)c4ccc([N+](=O)[O-])s4)CC3)c(F)c2)C(=O)O1.Cl	0.25

Record CC(=O)NC[C@H]1CN(c2ccc(N3CCN(Cc4ccc([N+](=O)[O-])o4)CC3)c(F)c2)C(=O)O1.Cl , field Broth MIC Normal MH broth: 2

Record CN[C@H](CC(C)C)C(=O)N[C@H]1C(=O)N[C@@H](CC(N)=O)C(=O)N[C@H]2C(=O)N[C@H]3C(=O)N[C@H](C(=O)N[C@H](C(=O)O)c4cc(O)cc(O)c4-c4cc3ccc4O)[C@H](O)c3ccc(c(Cl)c3)Oc3cc2cc(c3O[C@@H]2O[C@H](CO)[C@@H](O)[C@H](O)[C@H]2O[C@H]2C[C@](C)(N)[C@H](O)[C@H](C)O2)Oc2ccc(cc2Cl)[C@H]1O , field Broth MIC Normal MH broth: 1

Record CC(=O)NC[C@H]1CN(c2ccc(N3CCN(C(=O)c4ccoc4)CC3)c(F)c2)C(=O)O1 , field Broth MIC Normal MH broth: 2

Record CC(=O)NC[C@H]1CN(c2ccc(N3CCOCC3)c(F)c2)C(=O)O1 , field Broth MIC Normal MH broth: 1

###

System: Prevotella intermedia
Test: Agar dilution MIC, anaerobes
Assay type: cell-based
Settings: single isolates, anaerobic agar dilution
Below: a set of entries, each annotated with reported MIC Prevotella intermedia.
Reply with just the number (in µg/mL).

COMPOUND SMILES	SYSTEM NAME	NUMERIC RESULT
CC(=O)NC[C@H]1CN(c2ccc(N3CCN(Cc4ccc([N+](=O)[O-])o4)CC3)c(F)c2)C(=O)O1.Cl	Prevotella intermedia	0.016
Cc1ncc([N+](=O)[O-])n1CCO	Prevotella intermedia	0.25
CC1(C)S[C@@H]2[C@H](NC(=O)[C@H](N)c3ccc(O)cc3)C(=O)N2[C@H]1C(=O)O	Prevotella intermedia	4

Moving on to the next compound.
Record CC(=O)NC[C@H]1CN(c2ccc(N3CCOCC3)c(F)c2)C(=O)O1 , field MIC Prevotella intermedia: 1

###

System: G +ve bacteria
Experiment: Summary of in vitro activity (MIC)
Settings: G +ve, Number 49
Below: a set of entries, each annotated with reported MIC50.
Reply with just the number (in µg/mL).

Below are worked cases with known answers.
COMPOUND SMILES	MIC50, µg/mL
CC(=O)NC[C@H]1CN(c2ccc(N3CCN(C(=O)c4ccc([N+](=O)[O-])o4)CC3)c(F)c2)C(=O)O1	1
CC(=O)NC[C@H]1CN(c2ccc(N3CCC(N(C)C(=O)c4ccc([N+](=O)[O-])o4)CC3)c(F)c2)C(=O)O1	0.5

Moving on to the next compound.
Record CC(=O)NC[C@H]1CN(c2ccc(N3CCN(C(=O)c4ccc([N+](=O)[O-])s4)CC3)c(F)c2)C(=O)O1.Cl , field MIC50: 1

###

Below: a set of entries, each annotated with reported MIC50.
Tested on: E. faecalis
Experiment: Summary of in vitro activity (MIC)
Conditions: E. faecalis, Number 7
Reply with just the number (in µg/mL).

Below are worked cases with known answers.
COMPOUND	NUMERIC RESULT
CC(=O)NC[C@H]1CN(c2ccc(N3CCN(C(=O)c4ccc([N+](=O)[O-])o4)CC3)c(F)c2)C(=O)O1	1
CC(=O)NC[C@H]1CN(c2ccc(N3CC4C(CN(C)Cc5ccc([N+](=O)[O-])o5)C4C3)c(F)c2)C(=O)O1 (stereo partly drawn)	2
CC(=O)NC[C@H]1CN(c2ccc(N3CCC(N(C)Cc4ccc([N+](=O)[O-])o4)CC3)c(F)c2)C(=O)O1	0.5
CC(=O)NC[C@H]1CN(c2ccc(N3CCN(C(=O)c4ccc([N+](=O)[O-])s4)CC3)c(F)c2)C(=O)O1.Cl	1
CC(=O)NC[C@H]1CN(c2ccc(N3CCC(N(C)C(=O)c4ccc([N+](=O)[O-])o4)CC3)c(F)c2)C(=O)O1	0.064

Moving on to the next compound.
Record CC(=O)NC[C@H]1CN(c2ccc(N3CCN(Cc4ccc([N+](=O)[O-])o4)CC3)c(F)c2)C(=O)O1 , field MIC50: 2
